Exercise: for every item that follows, state its recorded pIC50.
# Target Entity: HIS-TGF-βR1 T204D (Homo sapiens (Human), UniProt P36897, T204D)
# Sequence (P36897 34-503 T204D): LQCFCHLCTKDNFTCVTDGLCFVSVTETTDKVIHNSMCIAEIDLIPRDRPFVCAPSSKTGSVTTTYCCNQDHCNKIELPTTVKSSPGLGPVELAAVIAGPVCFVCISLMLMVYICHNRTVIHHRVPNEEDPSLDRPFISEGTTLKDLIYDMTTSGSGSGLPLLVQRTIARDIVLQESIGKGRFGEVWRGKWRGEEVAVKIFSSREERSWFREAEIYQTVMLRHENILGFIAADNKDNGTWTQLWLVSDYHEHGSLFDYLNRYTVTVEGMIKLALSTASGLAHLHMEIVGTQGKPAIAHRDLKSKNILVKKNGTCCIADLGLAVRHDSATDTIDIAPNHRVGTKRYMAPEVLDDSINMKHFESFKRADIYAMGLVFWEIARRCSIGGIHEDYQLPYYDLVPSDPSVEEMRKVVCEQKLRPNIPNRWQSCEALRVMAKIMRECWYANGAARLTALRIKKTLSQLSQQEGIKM
# Assay Text: HTRF probe displacement assay with HIS-TGF-βR1 T204D
# Protocol Conditions: read-out: TGFbr1 IC50; HTRF probe displacement, 1 nM HIS-TGF-βR1 T204D, 1 hour at room temperature
Counter-ions that a name gives are not always drawn.
Give bare numbers, as −log10 of the molar value.

Consider the following illustrative entries.
N#Cc1cnc2ccc(-c3c(-c4ccc(F)c(Cl)c4)ncn3C3CC(F)(F)C3)cn12 = 7.18
CC(F)(F)Cn1cnc(-c2ccc(F)c(Cl)c2)c1-c1ccc2ncc(C#N)n2n1 = 9.10

Provide each entry's pIC50 from the list below.
1. N#Cc1cnc2ccc(-c3c(-c4ccc(F)cc4)ncn3CCC(F)F)nn12
2. NC(=O)c1cnc2ccc(-c3c(-c4ccc(F)cc4)ncn3CC(O)C(F)(F)F)cn12 (stereo not drawn)
3. CC(CO)n1cnc(-c2ccc(F)cc2)c1-c1ccc2ncc(C(N)=O)n2c1 (stereo not drawn) [175′]

Ans.
1: 8.66; 2: 7.67; 3: 8.70

Provide the reported pIC50 of each entry below, same order.
1. Fc1ccc(-c2ncn(CC(F)F)c2-c2ccc3ncc(N4CCOCC4)n3c2)cc1
2. Nc1nc(-c2ccc(F)cc2)c(-c2ccc3nccn3c2)n1CC(F)F [Example 296′, HCl]
3. Fc1ccc(-c2ncn(CC(F)F)c2-c2ccc3nccn3c2)c(F)c1
4. CONC(=O)c1cnc2ccc(-c3c(-c4ccc(F)cc4)ncn3CC(F)F)nn12
5. Fc1ccc(-c2ncn([C@H]3CCC(F)(F)C3)c2-c2ccc3nccn3c2)cc1Cl
6. N#Cc1cnc2ccc(-c3c(-c4cc(Cl)cc(Cl)c4)ncn3CC(F)F)nn12
7. NC(=O)c1cnc2ccc(-c3c(-c4ccc(F)c(Cl)c4)ncn3C3CC(F)C3)nn12 (stereo not drawn)

Ans.
[6.42, 6.96, 8.17, 9.15, 6.64, 7.40, 9.10]

====

# Target Entity: HIS-TGF-βR1 T204D (Homo sapiens (Human), UniProt P36897, T204D)
# Assay Text: HTRF probe displacement assay with HIS-TGF-βR1 T204D
# Protocol Conditions: read-out: TGFbr1 IC50; HTRF probe displacement, 1 nM HIS-TGF-βR1 T204D, 1 hour at room temperature
Threshold 200 nM: IC50 strictly smaller gives YES, otherwise NO.

CC[C@@H](CF)n1cnc(-c2ccc(F)cc2)c1-c1ccc2ncc(C#N)n2n1 = YES
CS(=O)(=O)Nc1ccccc1-c1ncn(CC(F)F)c1-c1ccc2ncc(C#N)n2n1 = NO
CC(C)(C)NC(=O)N1CC(n2cnc(-c3ccc(F)cc3)c2-c2ccc3ncc(C#N)n3n2)C1 = NO
N#Cc1cnc2ccc(-c3c(-c4ccc(F)cc4)ncn3C(CO)CO)cn12 = YES

Qu. Input `N#Cc1ccc(-c2ncn(CC(F)F)c2-c2ccc3ncc(C#N)n3n2)cc1` ; condition: IC50 strictly below 200 nM. Does it hold?
Ans. NO

====

# Target Entity: HIS-TGF-βR1 T204D (Homo sapiens (Human), UniProt P36897, T204D)
# Assay Text: HTRF probe displacement assay with HIS-TGF-βR1 T204D
# Protocol Conditions: read-out: TGFbr1 IC50; HTRF probe displacement, 1 nM HIS-TGF-βR1 T204D, 1 hour at room temperature
Quantity Kind: log10 of IC50 (log10 of the value in nM)
Note the log scale: values are log10 of IC50 expressed in nM.

Reference set, count: 5
N#Cc1cnc2ccc(-c3c(-c4ccc(O)cc4)ncn3CC(F)F)nn12 [250′] = 2.13
CC(C)(O)c1cccc(-c2ncn(CC(F)F)c2-c2ccc3ncc(C#N)n3n2)c1 [265′] = 0.99
CC(F)(F)Cn1cnc(-c2ccc(F)cc2)c1-c1ccc2ncc(C#N)n2n1 [22′] = 0.08
N#Cc1cnc2ccc(-c3c(-c4ccc(F)cc4)ncn3[C@]34CC5CC(C[C@](O)(C5)C3)C4)nn12 (single isomer, unassigned) [269′] = 3.08
N#Cc1cnc2ccc(-c3c(-c4ccc(F)c(Cl)c4)ncn3[C@H]3CCC(F)(F)C3)nn12 [64′] = 0.71

Hi, could you look up log10 of IC50 for each item in my list?
1. CC(C)(C)NC(=O)NCc1cnc2ccc(-c3c(-c4ccc(F)cc4)ncn3CC(F)F)nn12 [Example 199′]
2. N#Cc1cnc2ccc(-c3c(-c4ccc(F)c(Cl)c4)ncn3C3CC(F)C3)nn12 (stereo not shown) [Example 104′]
3. N#Cc1cnc2ccc(-c3c(-c4ccc(F)c(Cl)c4)ncn3C3CCC3)nn12 [58′]
4. Fc1ccc(-c2ncn(CC(F)F)c2-c2ccc3nccn3c2)cc1F [220′]
5. NC(=O)c1cnc2ccc(-c3c(-c4ccc(F)cc4)ncn3C3CC(F)(F)C3)nn12 [106′]
6. OCc1cnc2ccc(-c3c(-c4ccc(F)cc4)ncn3CC(F)F)nn12 [Example 210′]
7. OCCc1cnc2ccc(-c3c(-c4ccc(F)cc4)ncn3CC(F)F)nn12 [Example 217′]

Ans.
0.98
-0.30
-0.10
1.62
0.79
0.34
0.51

====

# Target Entity: HIS-TGF-βR1 T204D (Homo sapiens (Human), UniProt P36897, T204D)
# Assay Text: HTRF probe displacement assay with HIS-TGF-βR1 T204D
Would you kindly list pIC50 for each of these compounds?
Give bare numbers, as −log10 of the molar value.

In the examples that follow, each entry is paired with its recorded pIC50.
N#Cc1cnc2ccc(-c3c(-c4ccc(F)c(Cl)c4)ncn3CC(O)C(F)(F)F)nn12 (centres unmarked) = 8.17
COCC(C1CC1)n1cnc(-c2ccc(F)cc2)c1-c1ccc2ncc(C#N)n2n1 (centres unmarked) = 8.64
N#Cc1cnc2ccc(-c3c(-c4ccc(F)c(Cl)c4)ncn3CCC(F)(F)F)nn12 = 8.59
N#Cc1cnc2ccc(-c3c(-c4ccc(F)cc4)ncn3CCC(F)(F)F)nn12 = 8.17
NC(=O)c1cnc2ccc(-c3c(-c4ccc(F)c(Cl)c4)ncn3CCC(F)(F)F)nn12 = 8.34

Answer for every listed entry: what is its pIC50? The entries follow.
1. NC(=O)c1cnc2ccc(-c3c(-c4ccc(F)c(Cl)c4)ncn3[C@H]3C[C@@H](O)C3)nn12
2. N#Cc1cnc2ccc(-c3c(-c4ccc(F)cc4)ncn3CC(O)C(F)(F)F)cn12 (centres unmarked)
3. N#Cc1cnc2ccc(-c3c(-c4ccc(F)cc4F)ncn3CC(F)F)cn12

Ans.
1: 8.55; 2: 6.24; 3: 8.09

====

# Target Entity: HIS-TGF-βR1 T204D (Homo sapiens (Human), UniProt P36897, T204D)
# Assay Text: HTRF probe displacement assay with HIS-TGF-βR1 T204D
# Protocol Conditions: read-out: TGFbr1 IC50; HTRF probe displacement, 1 nM HIS-TGF-βR1 T204D, 1 hour at room temperature
Quantity Kind: IC50 (nM)
One number for each entry, in nM.

Example results:
CC(=O)N1CC(n2cnc(-c3ccc(F)cc3)c2-c2ccc3ncc(C#N)n3n2)C1 [Example 191′] = 72.7
CC(C)Cn1cnc(-c2ccc(F)cc2)c1-c1ccc2ncc(C(N)=O)n2c1 [168′] = 1.1
NC(=O)c1cnc2ccc(-c3c(-c4ccc(F)cc4)ncn3C3CC(F)(F)C3)cn12 [180′] = 3.7
N#Cc1cnc2ccc(-c3c(-c4ccc(F)cc4)ncn3C3COC3)cn12 [78′] = 568
CC(C)(F)Cn1cnc(-c2ccc(F)cc2)c1-c1ccc2ncc(C#N)n2n1 [23′] = 1.9

# return IC50 for each item in the list
1. NC(=O)c1cnc2ccc(-c3c(-c4ccc(F)cc4)ncn3C3CCCC3)cn12 [159′]
2. CCC(C)(C)n1cnc(-c2ccc(F)cc2)c1-c1ccc2ncc(C#N)n2n1 [30′]
3. N#Cc1cnc2ccc(-c3c(-c4ccc(F)c(Cl)c4)ncn3C3CC3)nn12 [36′]
4. OC(c1cnc2ccc(-c3c(-c4ccc(F)cc4)ncn3CC(F)F)nn12)C(F)(F)F (stereo not drawn) [Example 213′]

Ans.
1. 0.8
2. 9.2
3. 1.3
4. 2.3

====

Exercise: state measured IC50 for each of the compounds provided.
# Target Entity: HIS-TGF-βR1 T204D (Homo sapiens (Human), UniProt P36897, T204D)
# Assay Text: HTRF probe displacement assay with HIS-TGF-βR1 T204D
# Protocol Conditions: read-out: TGFbr1 IC50; HTRF probe displacement, 1 nM HIS-TGF-βR1 T204D, 1 hour at room temperature
Structures can show the parent of a compound that is named as a salt.
Answers are plain numbers, in nM.

Some entries whose results are on file:
Fc1ccc(-c2ncn(C3CC(F)(F)C3)c2-c2ccc3nccn3c2)cc1Cl = 54.5
CC(C)(O)CCn1cnc(-c2ccc(F)cc2)c1-c1ccc2ncc(C#N)n2n1 = 2.1
N#Cc1cnc2ccc(-c3c(-c4ccc(F)cc4)ncn3CC3CCCO3)nn12 (stereo not drawn) = 1.9
CC(C)(C)OC(=O)N1CC(n2cnc(-c3ccc(F)cc3)c2-c2ccc3ncc(C(N)=O)n3n2)C1 [195A′] = 244
CC1(Cn2cnc(-c3ccc(F)c(Cl)c3)c2-c2ccc3ncc(C#N)n3n2)CC1 = 1.6
N#Cc1cnc2ccc(-c3c(-c4ccc(F)cc4)ncn3C3(C#N)CC3)nn12 [Example 267′, TFA] = 0.3
FCCn1cnc(-c2ccc(F)c(Cl)c2)c1-c1ccc2nccn2c1 = 3.3
COC(=O)NCc1cnc2ccc(-c3c(-c4ccc(F)cc4)ncn3CC(F)F)nn12 = 12
CCC(C)n1cnc(-c2ccc(F)cc2)c1-c1ccc2ncc(C#N)n2c1 (stereo not drawn) = 55.8
CC[C@@H](CO)n1cnc(-c2ccc(F)cc2)c1-c1ccc2ncc(C(N)=O)n2n1 = 2.6

I'm hoping you can list IC50 for every compound here, please.
1. N#Cc1cnc2ccc(-c3c(-c4ccc(F)c(Cl)c4)ncn3C3CCOC3)nn12 (stereo not drawn)
2. NC(=O)c1cnc2ccc(-c3c(-c4ccc(F)cc4)ncn3[C@H]3C[C@@H](O)C3)nn12
3. N#Cc1cnc2ccc(-c3c(-c4ccc(F)cc4)ncn3C3CCC(F)(F)C3)nn12 (stereo not drawn)
4. N#Cc1cnc2ccc(-c3c(-c4ccc(F)c(Cl)c4)ncn3C34CC(C3)C4)nn12
5. Cn1cnc(-c2ccc(F)cc2)c1-c1ccc2ncc(C#N)n2n1
6. COCC(C1CC1)n1cnc(-c2ccc(F)cc2)c1-c1ccc2ncc(C(N)=O)n2n1 (stereo not drawn)
7. CN1CCn2c(nc(-c3ccc(F)cc3)c2-c2ccc3ncc(C(N)=O)n3c2)C1

Ans.
1. 1.5
2. 4.2
3. 5.5
4. 1.1
5. 9.9
6. 2.1
7. 43.3

Qu. // IC50 lookup, key: `COC(=O)N1CCn2c(nc(-c3ccc(F)cc3)c2-c2ccc3ncc(C(N)=O)n3c2)C1`
Ans. 30.5
